Test system: NCI-H522
Assay: NCI tumour cell line growth inhibition, 48 h
Calls of active or inactive are those of the source. Cut-off read from the data, not from the text of the source: active = GI50 up to about 1.1 µM and inactive = higher.
Would you mind answering with one of these outcomes? active, inactive

Could you check what this test reported for `CCCCNC(=O)c1cc(S(=O)(=O)n2ccnc2O)c(SC)cc1Cl` ? inactive

----------
Test system: COLO 205
Test: NCI tumour cell line growth inhibition, 48 h
Active and inactive are the calls of the source. No stated cut-off is given here; in the data, active = GI50 up to about 1.1 µM and inactive = higher.
Would you mind answering with one of these outcomes? class 1 = active, class 0 = inactive

MOLECULE: CC(=O)c1ccccc1NP(=O)(c1ccccc1)c1ccccc1
GROUP LABEL: class 0
--
MOLECULE: Oc1ccc(Cl)cc1C1=NC(/N=C\c2ccccc2)=NC(c2ccccc2)C1 (stereo not given)
GROUP LABEL: class 0
--
MOLECULE: N#C/C(=C\c1cn(Cc2ccccc2)c2ccccc12)c1nn(-c2ccccc2)c(N)c1C#N
GROUP LABEL: class 0

Could you check what this test reported for `Cc1cc(C)c2c(O)cc(-c3cccc(Cl)c3)nc2n1` ? class 1

Please give the result for COC1OC(COC(C)=O)C(OC(C)=O)C(OC(C)=O)C1NC(=O)N(CCCl)N=O (stereo not given) too. class 0

----------
Test system: HT-29
Experiment: NCI tumour cell line growth inhibition, 48 h
Active and inactive are the calls of the source. Cut-off read from the data, not from the text of the source: active = GI50 up to about 1.1 µM and inactive = higher.
Would you mind answering with one of these outcomes? label 1 (active), label 0 (inactive)

Could you check what this test reported for Oc1ccc(Cl)cc1C1=NC(/N=C\c2ccccc2)=NC(c2ccccc2)C1 (stereo unspecified) ? label 0

----------
System: HT-29
Assay: NCI tumour cell line growth inhibition, 48 h
Calls of active or inactive are those of the source. No stated cut-off is given here; in the data, active = GI50 up to about 1.1 µM and inactive = higher.
Parameter GI50: see the listing below.

Reference set, count: 5
COMPOUND: CN1c2ccc(O)c(O)c2-c2cc(O)cc3c2C1CCC3 (stereo unspecified)
METRIC: GI50
TEST VALUE: 19.1 µM (inactive)
//
COMPOUND: C=CCOC1OC(CS(=O)(=O)O)C(O)C(O)C1O (stereo unspecified)
METRIC: GI50
TEST VALUE: > 100 µM (inactive)
//
COMPOUND: CC1(C)OC2OC(C(COS(=O)(=O)C(F)(F)F)N=[N+]=[N-])C(OC(=O)c3ccccc3)C2O1 (stereo unspecified)
METRIC: GI50
TEST VALUE: > 100 µM (inactive)
//
COMPOUND: C[N+](C)(C)CCOC(=O)/C=C/c1c[nH]cn1
METRIC: GI50
TEST VALUE: > 500 µM (inactive)
//
COMPOUND: COc1cnnc2c(C)c(-c3ccccc3)nn12
METRIC: GI50
TEST VALUE: > 100 µM (inactive)

Which value of GI50 has been reported for `Cc1c2c(OCCN3CCCCC3)nn(C)c(=O)c2c(C)n1-c1ccccc1` in the records? 30.9 µM (inactive)

----------
Tested on: SNB-19
Assay: NCI tumour cell line growth inhibition, 48 h
Activity calls are given as the source filed them. No stated cut-off is given here; in the data, active = GI50 up to about 1.1 µM and inactive = higher.
Would you mind answering with one of these outcomes? t = active, f = inactive

COMPOUND: CNS(=O)(=O)NN(C)S(=O)(=O)c1ccc2ccccc2c1
GROUP LABEL: f
--
COMPOUND: CC(C)CCCCCCCCCCCCC(=O)NCC(=O)NC1C(C)OC(Nc2[nH]cnc3ncnc2-3)C(O)C1O (stereo not given)
GROUP LABEL: t

Could you check what this test reported for Cc1cc(O)ccc1C1(c2ccc(F)cc2)OC(=O)c2ccccc21 (stereo not given) ? f

Please give the result for CCOC(=O)C1C(=O)CC(C)(O)C(C(=O)OCC)C1c1ccc(N(C)C)cc1 (stereo not given) too. f

Please give the result for `Cc1cc2c(C=O)n[nH]c2c(C#N)c1C` too. f

Please give the result for N#CC(Sc1ccccc1)C(N)=O (stereo not given) too. f

Please give the result for `C#CC1(O)CCCCCCCCC2(CCCCCCCC1)OCCO2` too. f

Please give the result for `Cc1c(C(=O)c2ccc(N)c3ccccc23)c2ccccc2n1CCN1CCOCC1` too. f

Please give the result for `CN(C)CC[N+]1=Nc2cccc3cccc(c23)N1` too. f

Please give the result for `C1CSCCSCCSCCSC1` too. f

Please give the result for `COc1cccc(-c2cc(O)c3cc4c(cc3n2)OCO4)c1` too. t

Please give the result for `O=C1CCCC/C1=C1\C(=O)Nc2cc(F)ccc21` too. f

Please give the result for NC(CC(O)(c1ccccc1)c1ccccc1)c1ccccc1S (stereo not given) too. f

Please give the result for `COc1ccc(/C=C2\CCC/C(=C\c3ccc(O)c(CN4CCCCC4)c3)C2=O)cc1` too. f

Please give the result for `O=S(=O)(O)c1cc(/N=N/c2cc(S(=O)(=O)O)c3ccccc3c2O)ccc1/C=C/c1ccc(/N=N/c2cc(S(=O)(=O)O)c3ccccc3c2O)cc1S(=O)(=O)O` too. f

Please give the result for `CCc1nnc2sc(-c3ccc(-c4ccc(Cl)cc4Cl)o3)nn12` too. f

Please give the result for CC1=NNC(=O)C1C1C=C(c2c[nH]c3ccccc23)OC1=O (stereo not given) too. f

Please give the result for `CC(=O)Nc1ccc2c(c1)[nH]c(=O)c1cc(Cl)ccc12` too. f

Please give the result for `CCOP(=O)(/C=C/n1cnc2c(=O)n(C(C)=O)c(N)nc21)OCC` too. f

Please give the result for `O=C(NC(=S)Nc1ccc(Br)cc1)c1ccc2c(c1)Sc1ccccc1O2` too. f

Please give the result for `O=S(=O)(O)c1ccc2cc(/N=N/c3c(O)ccc4ccccc34)ccc2c1` too. f

----------
Test system: SNB-19
Test: NCI tumour cell line growth inhibition, 48 h
Active and inactive are the calls of the source. No stated cut-off is given here; in the data, active = GI50 up to about 1.1 µM and inactive = higher.
Parameter GI50: see the listing below.

Reference set, count: 5
MOLECULE: CCCCCCCC/C=C\CCCCCCC(F)C(=O)O (stereo unspecified)
GI50: > 12.5 µM (inactive)
//
MOLECULE: N#Cc1c(NCCc2ccc(F)cc2)c2ccccc2n2c1nc1ccccc12
GI50: 14 µM (inactive)
//
MOLECULE: NCCCN(CCCN(C(=O)Nc1ccccc1)c1ccccc1)C(=O)Nc1ccccc1
GI50: 52.4 µM (inactive)
//
MOLECULE: CC(=O)Oc1cccc2c1C(=O)CCCC2
GI50: > 100 µM (inactive)
//
MOLECULE: NCCCN(CCCCN(CCCN)Cc1ccc2ccccc2c1)Cc1ccc2ccccc2c1
GI50: 1.53 µM (inactive)

Now for the molecule whose GI50 we want.
Which value of GI50 has been reported for CCOC(=O)NC1C2CC(=O)OC(O2)C1OC(C)=O (stereo unspecified) in the records? > 100 µM (inactive)

----------
Parameter GI50: see the listing below.
Tested on: UO-31
Test: NCI tumour cell line growth inhibition, 48 h
Active and inactive are the calls of the source. No stated cut-off is given here; in the data, active = GI50 up to about 1.1 µM and inactive = higher.

Reference set, count: 3
COMPOUND: Cc1c2c(OCCN3CCCCC3)nn(C)c(=O)c2c(C)n1-c1ccccc1
GI50: 12.2 µM (inactive)
--
COMPOUND: COc1cc(OC)cc(Oc2nc3ccccc3nc2C(=O)O)c1
GI50: > 100 µM (inactive)
--
COMPOUND: O=C1OC(O)C(Oc2ccc(Cl)cc2)=C1Cl (stereo not given)
GI50: > 100 µM (inactive)

Which value of GI50 has been reported for `Cc1cc(N(CCC#N)CCC#N)ccc1/C=C(\NC(=O)/C=C/c1ccccc1)C(=O)N=[N+]=[N-]` in the records? > 100 µM (inactive)

Please give the result for `N#Cc1c(NCCc2ccc(F)cc2)c2ccccc2n2c1nc1ccccc12` too. 13.7 µM (inactive)

Please give the result for COC(=O)C(CC(=O)Nc1ccc(Cl)c(Cl)c1)C(=O)C(=O)Nc1ccc(Cl)c(Cl)c1 (stereo not given) too. > 100 µM (inactive)

----------
System: HCC 2998
Experiment: NCI tumour cell line growth inhibition, 48 h
Active and inactive are the calls of the source. No stated cut-off is given here; in the data, active = GI50 up to about 1.1 µM and inactive = higher.
Would you mind answering with one of these outcomes? active, inactive

Take a look at these entries with their results.
COMPOUND: C[C@@H](NC1CCCC[C@H]1O)c1ccccc1 (some centres undefined)
EXPERIMENTAL SYSTEM: HCC 2998
GROUP LABEL: inactive
--
COMPOUND: O=C(n1c(=O)n(-c2ccc(Cl)cc2)c(=O)n1C(=O)C(Cl)(Cl)Cl)C(Cl)(Cl)Cl
EXPERIMENTAL SYSTEM: HCC 2998
GROUP LABEL: inactive

Could you check what this test reported for `Nc1ccc(C(=O)/C=C/c2ccccc2O)cc1` ? inactive

Please give the result for COC1OC(COC(C)=O)C(OC(C)=O)C(OC(C)=O)C1NC(=O)N(CCCl)N=O (centres undefined) too. inactive

Please give the result for `COc1cc(OC)cc(Oc2nc3ccccc3nc2C(=O)O)c1` too. inactive

Please give the result for `CCOC(=O)C(C(=O)c1ccccc1C(=O)OC)=P(c1ccccc1)(c1ccccc1)c1ccccc1` too. inactive

----------
System: RXF 393
Assay: NCI tumour cell line growth inhibition, 48 h
Calls of active or inactive are those of the source. No stated cut-off is given here; in the data, active = GI50 up to about 1.1 µM and inactive = higher.
METRIC: GI50

Reference set, count: 6
COMPOUND: COC(=O)/C=C(/C(=O)OC)c1c(C)cc2c(C)cc(C)cc(C)c1-2
GI50: 18.8 µM (inactive)

COMPOUND: CCCCNS(=O)(=O)c1ccc(-c2ccc3c(c2)-c2ccc(S(=O)(=O)NCCCC)cc2S3(=O)=O)cc1
GI50: 10.8 µM (inactive)

COMPOUND: Nc1ccc2nc(NCc3ccc(F)cc3)cnc2c1
GI50: 59.6 µM (inactive)

COMPOUND: Cc1[nH]c2ccccc2c1C1Cc2ccccc2N1C(=O)/C=C/C=C/c1ccccc1 (stereo not given)
GI50: > 100 µM (inactive)

COMPOUND: COC1(OC)c2no[n+]([O-])c2CCC1O (stereo not given)
GI50: > 100 µM (inactive)

COMPOUND: O[C@H]1[C@H]2[C@H](O)CCCN2C[C@H]1O
GI50: > 100 µM (inactive)

Lookup: GI50 / RXF 393 / `NCCCN(CCCN(C(=O)Nc1ccccc1)c1ccccc1)C(=O)Nc1ccccc1` 24.5 µM (inactive)

Please give the result for COc1cccc(C2c3cc4c(cc3OC(C)(N3CCCC3)C2C)OCO4)c1O (stereo not given) too. 2.89 µM (inactive)

Please give the result for CCOC(=O)c1cc(C2CCN(Cc3ccccc3)C2=O)c(C(=O)C(=[N+]=[N-])C(C)=O)[nH]1 (stereo not given) too. > 100 µM (inactive)

Please give the result for CC(C)(C)OCC1NC(=O)[C@@H]2Cc3c([nH]c4ccccc34)C(C3CCCCC3)N2C1=O (stereo not given in full) too. 15.6 µM (inactive)

Please give the result for `O=C(CCc1cc(-c2ccccc2)[nH]c(=S)n1)Nc1ccccc1[N+](=O)[O-]` too. > 100 µM (inactive)

Please give the result for `O=C(NNC(=S)Nc1ccccc1)c1nsc2ccccc12` too. 40.7 µM (inactive)

Please give the result for `COc1cc(OC)cc(Oc2nc3ccccc3nc2C(=O)O)c1` too. > 100 µM (inactive)

Please give the result for O=C(CC(C(=O)c1ccoc1)c1ccco1)c1ccco1 (stereo not given) too. > 100 µM (inactive)

Please give the result for `COC1=C(N=[N+]=[N-])C(=O)c2ncccc2C1=O` too. 3.75 µM (inactive)
